Source: PubChem BioAssay AID1195

- Tested on: human maximum recommended daily dose, FDA database
- procedure_text: DSSTox (FDAMDD) FDA Maximum (Recommended) Daily Dose Database
- settings: TherapeuticCategory: vitamin; hits give low values
Items are presented alongside their recorded maximum recommended daily dose (mmol/kg-bw/day).
Could you keep your reply to the number by itself?

Illustrative cases are given below, each with its answer.
[
  {
    "line_notation": "O=C(O)c1cccnc1",
    "numeric_result": 0.102
  },
  {
    "line_notation": "CC(C)(CO)[C@@H](O)C(=O)NCCC(=O)O",
    "numeric_result": 0.000534
  }
]

Please find the next molecule below.
Data request: What measured maximum recommended daily dose (mmol/kg-bw/day) goes with NC(=O)c1cccnc1 ?
Data returned: 0.0682
